Data origin: patent US7452997B2

Known EC50 of a selection of molecules
target: human CB1 receptor (Homo sapiens, UniProt P21554); construct: expressed in transfected cells; host or cells: SK-N-MC cells, stably transfected with pcDNA3 CB-1 (human); semi-purified membrane pellet; test: Functional cell-based assay, CB1 receptor mediated change in CRE β-gal expression (agonist / inverse agonist)
Sequence (P21554 whole entry): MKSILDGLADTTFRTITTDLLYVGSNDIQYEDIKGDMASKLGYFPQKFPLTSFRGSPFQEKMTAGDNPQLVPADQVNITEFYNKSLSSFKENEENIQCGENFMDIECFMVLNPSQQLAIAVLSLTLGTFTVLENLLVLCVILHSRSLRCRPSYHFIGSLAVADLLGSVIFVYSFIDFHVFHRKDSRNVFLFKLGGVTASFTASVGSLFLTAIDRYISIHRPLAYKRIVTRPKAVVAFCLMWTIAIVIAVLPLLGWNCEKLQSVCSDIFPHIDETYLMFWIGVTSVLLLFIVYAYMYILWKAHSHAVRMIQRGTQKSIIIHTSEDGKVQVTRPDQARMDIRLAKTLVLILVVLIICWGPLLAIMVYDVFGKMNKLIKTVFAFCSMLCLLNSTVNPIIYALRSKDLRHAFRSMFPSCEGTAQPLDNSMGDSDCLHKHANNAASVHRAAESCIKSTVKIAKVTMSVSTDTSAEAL
Report as a plain number; the unit nM is understood.

CC(NC(=O)c1nn(Cc2ccccc2)c2c1CCCC2c1ccccc1)c1ccccc1 (stereo not shown) [compound 253]	1940
CC(NS(=O)(=O)C=Cc1nn(-c2ccc(F)cc2)c2c1CCCC2CCc1ccccc1)c1ccccc1 (stereo not shown) [Cpd 258]	480
CCOC(=O)C1CCc2c(c(C(=O)NC3C4(C)CCC(C4)C3(C)C)nn2C2CCCCC2)C1 (stereo not shown) [compound 67]	524
CCOC(=O)C1CCc2c(C(=O)NC3C4(C)CCC(C4)C3(C)C)nn(C3CCCCC3)c2C1 (stereo not shown) [compound 70]	1000
CCOC(=O)[C@@H]1CCCC[C@@H]1NC(=O)c1nn(-c2ccc(F)cc2)c2c1CCCC2 [compound 33]	135
CCNC(=O)[C@@H]1C2CCC(C2)[C@@H]1NC(=O)c1nn(Cc2ccccc2)c2c1CCCC2 (stereo partly shown) [compound 167]	3360
CCOC(=O)C1CCc2nn(-c3ccccc3)c(C(=O)NC34CC5CC(CC(C5)C3)C4)c2C1 (stereo not shown) [compound 91]	3370
O=C(NN1CCCCC1)c1nn(-c2ccc(Cl)cc2Cl)c2c1CCC/C2=C\c1ccc(Cl)cc1 [compound 290]	44

// query Answer with the recorded EC50 for the molecule listed here: CC12CCC(C1)C(C)(C)C2NC(=O)c1nn(-c2ccc(F)cc2)c2c1CCCC2c1ccccc1 (stereo not shown) [compound 144]
// result 176

// query Give EC50 for the following molecule: C[C@H](NC(=O)/C=C/c1nn(Cc2ccccc2)c2c1CCCC2)c1ccccc1 [compound 305]
// result 630

// query Input CCOC(=O)C1CCc2c(c(C(=O)NC(C)c3ccccc3)nn2Cc2ccccc2)C1 (stereo not shown) [compound 256] , output reported EC50.
// result 250

// query Using known records, supply EC50 for CCOC(=O)[C@@H]1CCCC[C@@H]1NC(=O)c1nn(Cc2ccccc2)c2c1CCCC2 (relative stereo) [compound 38]
// result 103

// query Supply EC50 value. Item: C[C@@H](NC(=O)c1nn(-c2ccc(Cl)cc2Cl)c2c1CCC/C2=C\c1ccc(Cl)cc1)C1CCCCC1 [compound 293]
// result 25

// query Provide measured EC50 value, entry: CCOC(=O)[C@@H]1CCc2c(c(C(=O)NC3C4(C)CCC(C4)C3(C)C)nn2-c2ccccc2)C1 (stereo partly shown) [compound 220]
// result 399

// query Report EC50 for CC12CCC(C1)C(C)(C)C2NC(=O)Nc1nn(Cc2ccccc2)c2c1CCCC2 (stereo not shown) [compound 338]
// result 6

// query Specify EC50 for O=C(NN1CCOCC1)c1nn(-c2ccc(Cl)cc2Cl)c2c1CCC/C2=C\c1ccc(Cl)cc1 [compound 291] and stop.
// result 10

---

target: human CB2 receptor (Homo sapiens, UniProt P34972); assay: Binding assay, cannabinoid CB2 receptor ([3H]-CP-55,940 displacement); conditions: Cannabinoid CB2 Receptor Binding IC50, human CB2 receptor, SK-N-MC cell membranes, radioligand CP-55,940 0.2 nM
Sequence (P34972 whole entry): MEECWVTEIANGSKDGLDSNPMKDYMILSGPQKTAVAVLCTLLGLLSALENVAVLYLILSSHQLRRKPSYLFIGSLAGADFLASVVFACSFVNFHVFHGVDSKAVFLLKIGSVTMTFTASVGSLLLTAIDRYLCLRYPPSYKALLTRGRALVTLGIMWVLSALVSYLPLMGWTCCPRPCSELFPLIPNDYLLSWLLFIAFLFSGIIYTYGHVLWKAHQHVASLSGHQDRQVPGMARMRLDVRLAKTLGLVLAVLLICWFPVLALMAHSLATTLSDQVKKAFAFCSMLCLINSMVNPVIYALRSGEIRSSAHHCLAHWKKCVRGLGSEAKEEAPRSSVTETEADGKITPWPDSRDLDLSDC
pIC50: −log10 of the molar value.
The threshold is inclusive: pIC50 of exactly 6 counts as criterion met; values below receive criterion not met.

Use these answered entries as a reference point.
O=C(NC1C2CC3CC(C2)CC1C3)c1nn(C2CCCCC2)c2c1CC(C(=O)O)CC2 (centres unmarked)	criterion not met
CC12CCC(C1)C(C)(C)C2NC(=O)c1nn(Cc2ccccc2)c2c1CCCC2c1ccccc1 (centres unmarked)	criterion met
COC(=O)C(Cc1ccc(O)cc1)NC(=O)c1nn(Cc2ccccc2)c2c1CCCC2 (centres unmarked)	criterion met
CC(NC(=O)c1nn(CC2CCCCC2)c2c1CCCC2)C12CC3CC(CC(C3)C1)C2 (centres unmarked)	criterion met
C[C@@H](NC(=O)c1nn(-c2ccccc2)c2c1CC(C(C)(C)C)CC2)C1CCCCC1 (some centres unmarked)	criterion met

// query Could you please find out whether CCOC(=O)C1=C(NC(=O)c2nn(C3CCCCC3)c3c2CCCC3)CCC1 has pIC50 that meets 6 or exceeds it?
// result criterion not met

// query Assess whether reported pIC50 for CCOC(=O)[C@@H]1C2CCC(C2)[C@@H]1NC(=O)c1nn(Cc2ccccc2)c2c1CCCC2 (some centres unmarked) sits at 6 or higher.
// result criterion met

// query Is the recorded value of pIC50 equal to or greater than 6 for this compound? CCOC(=O)C1CCCc2c1c(C(=O)N[C@H](C)C1CCCCC1)nn2C1CCCCC1 (some centres unmarked)
// result criterion not met

// query Check if pIC50 >= 6 (inclusive). Item: CC(NC(=O)c1nn(C2CCCCC2)c2c1CCCC2)C1CCCC1 (centres unmarked)
// result criterion met

// query Test whether the compound CC(NC(=O)c1nn(-c2ccc(F)cc2)c2c1CCCC2CCc1ccccc1)C12CC3CC(CC(C3)C1)C2 (centres unmarked) records pIC50 of 6 or higher.
// result criterion met

// query API: above_or_equal(metric=pIC50, cutoff=6) for item O=C(NN1CCCCCC1)c1nn(Cc2ccccc2)c2c1CCCC2
// result criterion met
